Each recorded value in this set is attributed to paper PMC6959841.

Test System: HSP72-NBD (Homo sapiens, UniProt P0DMV8)
Sequence (P0DMV8 2-386 limits assumed): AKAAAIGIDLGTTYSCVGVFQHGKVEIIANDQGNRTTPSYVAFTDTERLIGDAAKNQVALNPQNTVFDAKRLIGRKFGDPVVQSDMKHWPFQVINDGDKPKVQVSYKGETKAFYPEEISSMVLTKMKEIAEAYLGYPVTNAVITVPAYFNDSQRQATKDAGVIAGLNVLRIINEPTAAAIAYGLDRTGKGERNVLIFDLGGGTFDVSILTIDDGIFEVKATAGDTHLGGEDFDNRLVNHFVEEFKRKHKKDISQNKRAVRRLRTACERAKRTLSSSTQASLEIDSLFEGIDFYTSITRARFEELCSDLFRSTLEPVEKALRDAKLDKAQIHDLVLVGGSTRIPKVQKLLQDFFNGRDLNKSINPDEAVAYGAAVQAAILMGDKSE
Measurement Description: HSP72-NBD nucleotide-derived FP-assay (probe displacement, App. Ki, time-dependent)
Type: binding
Condition Description: Time […] (printed 0.08 3)

Smiles Data: C=CC(=O)OCCC[C@H]1O[C@@H](n2c(NCc3ccc(Cl)cc3)nc3c(N)ncnc32)[C@H](O)[C@@H]1O
Test System: HSP72-NBD (Homo sapiens, UniProt P0DMV8)
Ki, µM: 17

====

Test System: HSP72-NBD (Homo sapiens, UniProt P0DMV8)
Measurement Description: HSP72-NBD nucleotide-derived FP-assay (probe displacement, App. Ki, time-dependent)
Type: binding
Condition Description: Time 46 h

Molecule: C=CC(=O)OCCC[C@H]1O[C@@H](n2c(NCc3ccc(Cl)cc3)nc3c(N)ncnc32)[C@H](O)[C@@H]1O [Compound 2]
Ki [µM]: 3.7

====

Test System: HSP72-NBD (Homo sapiens, UniProt P0DMV8)
Measurement Description: HSP72-NBD nucleotide-derived FP-assay (probe displacement, App. Ki, time-dependent)
Assay type: binding
Condition Description: Time 19 h
pKi: −log10 of the molar value.
Result Type: pKi

Compound: C=CC(=O)OCCC[C@H]1O[C@@H](n2c(NCc3ccc(Cl)cc3)nc3c(N)ncnc32)[C@H](O)[C@@H]1O [Compound 2]
Test System: HSP72-NBD (Homo sapiens, UniProt P0DMV8)
Result Type: pKi
Recorded Number: 5.14
